Data provenance is patent US10351561B2.

Molecular target: PDE1A (Homo sapiens, UniProt P54750)
Sequence (P54750 whole entry): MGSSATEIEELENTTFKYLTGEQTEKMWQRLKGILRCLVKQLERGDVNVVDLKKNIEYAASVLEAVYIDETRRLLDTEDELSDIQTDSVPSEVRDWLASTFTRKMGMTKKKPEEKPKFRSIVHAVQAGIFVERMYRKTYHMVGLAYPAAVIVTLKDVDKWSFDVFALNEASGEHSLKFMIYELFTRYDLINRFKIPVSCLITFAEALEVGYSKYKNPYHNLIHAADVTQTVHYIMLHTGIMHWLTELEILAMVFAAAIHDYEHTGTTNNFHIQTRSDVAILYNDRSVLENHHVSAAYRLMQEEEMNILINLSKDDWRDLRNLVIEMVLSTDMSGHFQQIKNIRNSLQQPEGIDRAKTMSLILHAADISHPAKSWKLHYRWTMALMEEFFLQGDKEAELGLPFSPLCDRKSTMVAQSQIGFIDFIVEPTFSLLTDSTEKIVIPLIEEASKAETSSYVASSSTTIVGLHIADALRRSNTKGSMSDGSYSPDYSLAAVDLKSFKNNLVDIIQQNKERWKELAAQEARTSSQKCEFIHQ
pIC50: −log10 of the molar value.
Classes by pIC50: b0: < 7; b1: ≥ 7 and < 8; b2: ≥ 8

Consider the worked cases shown below.
# MOLECULE, ASSAYED SYSTEM, GROUP
records = [
    ("CCOc1ncccc1-c1cc(NCc2cccc(OC)n2)c2c(C(C)C)nn(C)c2n1 [Example 41]", "PDE1A (Homo sapiens, UniProt P54750)", "b0"),
    ("CCOc1ncccc1-c1cc(NCc2coc(C)n2)c2c(C(C)C)nc(C)n2n1 [Example 9]", "PDE1A (Homo sapiens, UniProt P54750)", "b1"),
    ("Cc1nc(C(C)C)c2c(NCc3ncn(C)n3)cc(-c3cccc4ncoc34)nn12 [Example 81]", "PDE1A (Homo sapiens, UniProt P54750)", "b2"),
    ("CCOc1ncccc1-c1cc(NCc2ncn(C)n2)c2c(C(C)CC)nc(C)n2n1 (single isomer, unassigned; (+)) [Example 50]", "PDE1A (Homo sapiens, UniProt P54750)", "b2"),
    ("CCOc1ncccc1-c1cc(NCc2cccnc2C(F)(F)F)c2c(C(C)C)nn(C)c2n1 [Example 38]", "PDE1A (Homo sapiens, UniProt P54750)", "b0"),
    ("CCOc1ncccc1-c1cc(NCc2cnn(C)c2)c2c(C(C)C)nn(C)c2n1 [Example 19]", "PDE1A (Homo sapiens, UniProt P54750)", "b1"),
]

Enquiry: Classify this molecule: CCOc1ncccc1-c1cc(NCc2ccn(C)n2)c2c(C(C)C)nn(C)c2n1 [Example 21]
Return: b1
